system: NCI-H82; test: cells; format: functional, cell-based, Homo sapiens; details: Homo sapiens, NCI-H82;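 note: growth inhibition of NCI-H82 cells, measured with a cell viability readout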
Description: SANGER: Inhibition of human NCI-H82 cell growth in a cell viability assay.
assay-readout: IC50 (nM)

compound=CO[C@H]1C[C@@H]2CC[C@@H](C)[C@@](O)(O2)C(=O)C(=O)N2CCCC[C@H]2C(=O)O[C@H]([C@H](C)C[C@@H]2CC[C@@H](OC(=O)C(C)(CO)CO)[C@H](OC)C2)CC(=O)[C@H](C)/C=C(\C)[C@@H](O)[C@@H](OC)C(=O)[C@H](C)C[C@H](C)/C=C/C=C/C=C/1C op== measured=28.8
compound=O=C(O)c1ccc(-c2c[nH]c3ncc(-c4ccccc4)cc23)cc1C1CCCC1 op=> measured=16000
compound="Nc1cccc2c1CN(C1CCC(=O)NC1=O)C2=O (centres undefined) [LENALIDOMIDE]" op=> measured=5000
compound=CC(=O)O[C@H]1C(=O)[C@@]2(C)[C@H]([C@H](OC(=O)c3ccccc3)[C@]3(O)C[C@H](OC(=O)[C@H](O)[C@@H](NC(=O)c4ccccc4)c4ccccc4)C(C)=C1C3(C)C)[C@]1(OC(C)=O)CO[C@@H]1C[C@@H]2O op== measured=43.1
compound=Cc1cc([N+](=O)[O-])ccc1NS(=O)(=O)c1cc(Cl)ccc1Cl op== measured=18000
compound=Cc1cn(-c2cc(NC(=O)c3ccc(C)c(Nc4nccc(-c5cccnc5)n4)c3)cc(C(F)(F)F)c2)cn1 op=> measured=2000
compound=COc1cc2c(Nc3ccc(NC(=O)c4ccccc4)cc3)ncnc2cc1OCCCN1CCOCC1 op=> measured=4000
compound="COc1cc2ncn(-c3cc(OCc4ccccc4S(C)(=O)=O)c(C#N)s3)c2cc1OC [GSK-319347A]" op=> measured=5000
compound="COc1cc2ncn(-c3cc(OCc4ccccc4C(F)(F)F)c(C(N)=O)s3)c2cc1OC [GW843682X]" op== measured=15.2
